Each recorded value in this set is attributed to patent US20260258115A1.

Target: RSV prefusion F (preF, DS-Cav1) (Respiratory syncytial virus)
Assay: BLI, IgG on sensor, 100 nM antigen
pKd: −log10 of the molar value.
Entries and their pKd values follow.
Readout type: pKd

Binder	Readout type	Assay result
ADI-41279 (antibody, V domains shown) VH: QVQLVQSGAEVKKAGETLKISCRGPAHTFTSFWIGWVRQTPGKGLEWMGNIYPGDTDTTYSPSFRGQVTISADKSISTAYLQWNSLKASDTAIYYCATRVRHGYSSSGSFESWGQGTMVTVSS VL: QSVVTQPPSVSGAPGQRITISCTGSNSNTGAGYDVHWYQQLPGAAPKLLIFANNNRPSGVPDRFSGSKSGTSASLAITGLQAEDEADYYCQSYDNSLSAYVFGTGTKLTVL	pKd	7.30
ADI-41268 (antibody, V domains shown) VH: EVQLVESGGGLVKPGGSLRLSCVASGFGFTSYSMNWVRQAPGKGLEWVSSISASSTYIHYADSVKGRFTISRDNARNSLYLQMISLRADDTAVYYCSRDGPTYGSGVHVWGQGTMVTVSS VL: QSALIQPVSVSGSPGQSITISCTGTRSDVGGYNYVSWYQQHPGKAPKLMIYEVRNRPSGVSDRFSGSKSGNTASLTISGLQAEDEGDYYCSSYTSSDTLFYVFGSGTKLTVL	pKd	9.24
ADI-41275 (antibody, V domains shown) VH: EVQLVESGGGLVKPGGSLRLSCAASGFMFSTYSMNWVRQAPGKGLEWVSFITGSSSDKYYAHSVKGRFTISRDNAKRTLYLQLNSLRAEDTAVYYCARFRGLYCDGDCSSRGNTYYNYYGMDVWGQGTTVTVSS VL: EIVMTQSPLSLSVIPGEPASISCRSSKSLLHSNGYTYLDWYLQKPGQSPQLLIHLGSNRASGVPDRFSGSGSGTDFTLKISRVEAEDVGVFYCMQALQAPPTFGPGTKVEIK	pKd	8.24
ADI-41278 (antibody, V domains shown) VH: EVQLVESGPALVKPTQTLTLTCTFSGFSLSTKRMGVSWIRQPPGKALEWLARIDWDDDKFYSTSLKTRLTISKDTSKNQVVLTLANMDPVDTATYFCARTTVYASGGYYLYYLDYWGQGTLVTVSS VL: DIVMTQTPSSLSASVGDRVTLTCRASQRIASYVNWYHQKPGKAPNLLIYAASNLQSGVPSRFSGSGSGTDFTLTISSLQPEDFATYYCQQSYSTPLTFGQGTKLEIK	pKd	8.89
ADI-41306 (antibody, V domains shown) VH: QVQLVESGPRLVKPSQTLSLTCTVSGGSIYRGDYDWNWIRQPPGKGLEWIGYISYTGNTHYNSSLKSRLSISADTSGTHFSLKLSSVTAADTAIYYCARDVGYGGNAAHYYYYAMDVWGQGTTVTVSS VL: ETTLTQSPATLSLSPGERATLSCRASQSVGSSLAWYQQKVGQAPRLLIYDASSRVTGIPARFSGSGSGTDFTLTISSLEPGDFAVYYCQQRSNSLTFGGGTKVEIK	pKd	9.34
